- Species: Cavia porcellus
- assay.protocol: Effective concentration required for its inhibition of nonspecific binding to guinea pig ileal membranes
- Format: functional
Non-standard residues stand in square brackets, D forms with d. Residues, ends and D or L forms follow the SMILES beside them. Dip = N[C@H](C(=O)O)C(c1ccccc1)c1ccccc1
Kindly supply the reported pEC50 values for the records listed here.
The meaning of pEC50 here: minus log10 of the concentration in molar units.

The measured pEC50 associated with CSCC[C@H](NC(=O)[C@H](CC(C)C)NC(=O)CNC(=O)[C@H](Cc1ccccc1)NC(=O)[C@@H](NC(=O)[C@H](CCC(N)=O)NC(=O)[C@H](CCC(N)=O)NC(=O)[C@@H]1CCCN1C(=O)[C@H](CCCCN)NC(=O)[C@@H]1CCCN1C(=O)[C@@H](N)CCCN=C(N)N)C1c2ccccc2-c2ccccc21)C(N)=O reads 8.02

// pEC50 lookup, compound = CSCC[C@H](NC(=O)[C@H](CC(C)C)NC(=O)CNC(=O)[C@@H](NC(=O)[C@H](Cc1ccccc1)NC(=O)[C@H](CCC(N)=O)NC(=O)[C@H](CCC(N)=O)NC(=O)[C@@H]1CCCN1C(=O)[C@H](CCCCN)NC(=O)[C@@H]1CCCN1C(=O)[C@@H](N)CCCN=C(N)N)C(C)(C)S(C)(=O)=O)C(N)=O , result: 8.96

Lab note: CSCC[C@H](NC(=O)[C@H](CC(C)C)NC(=O)CNC(=O)[C@@H](NC(=O)[C@H](Cc1ccccc1)NC(=O)[C@H](CCC(N)=O)NC(=O)[C@H](CCC(N)=O)NC(=O)[C@@H]1CCCN1C(=O)[C@H](CCCCN)NC(=O)[C@@H]1CCCN1C(=O)[C@@H](N)CCCN=C(N)N)C1c2ccccc2-c2ccccc21)C(N)=O gave pEC50 of 8.24

According to the records, this compound CSCC[C@H](NC(=O)[C@H](CC(C)C)NC(=O)[C@@H]1CCCN1C(=O)[C@@H](NC(=O)[C@H](Cc1ccccc1)NC(=O)[C@H](CCC(N)=O)NC(=O)[C@H](CCC(N)=O)NC(=O)[C@@H]1CCCN1C(=O)[C@H](CCCCN)NC(=O)[C@@H]1CCCN1C(=O)[C@@H](N)CCCN=C(N)N)C(c1ccccc1)c1ccccc1)C(N)=O (H-RPKPQQF[Dip]PLM-NH2) displays pEC50 of 7.70

---

- Organism: Cavia porcellus
- assay.protocol: Effective concentration required for its inhibition of nonspecific binding to guinea pig ileal membranes
- Assay type: functional
Starred links: 1 amine or outer side, 2 acyl side, 3 side chain; linkers in the order of their positions; H or OH if unused. Non-standard residues stand in square brackets, D forms with d. Residues, ends and D or L forms follow the SMILES beside them. Gly(9-fluorenyl) = N[C@H](C(=O)O)C1c2ccccc2-c2ccccc21; X1 = O=C([C@@H](N[*:1])C1CCc2ccccc21)[*:2]
For each entry below, report its pEC50 value.
// pEC50 here means minus log10 of the molar concentration (mol/L)

// pEC50 value for CSCC[C@H](NC(=O)[C@H](CC(C)C)NC(=O)CNC(=O)[C@H](Cc1ccccc1)NC(=O)[C@@H](NC(=O)[C@H](CCC(N)=O)NC(=O)[C@H](CCC(N)=O)NC(=O)[C@@H]1CCCN1C(=O)[C@H](CCCCN)NC(=O)[C@@H]1CCCN1C(=O)[C@@H](N)CCCN=C(N)N)C(c1ccccc1)c1ccccc1)C(N)=O : 6.65

For CSCC[C@H](NC(=O)[C@H](CC(C)C)NC(=O)[C@@H]1CCCN1C(=O)[C@H](Cc1ccccc1)NC(=O)[C@H](Cc1ccccc1)NC(=O)[C@H](CCC(N)=O)NC(=O)[C@H](CCC(N)=O)NC(=O)[C@@H]1CCCN1C(=O)[C@H](CCCCN)NC(=O)[C@@H]1CCCN1C(=O)[C@@H](N)CCCN=C(N)N)C(N)=O the compound record lists pEC50 as 8.70

# pEC50 (compound: CSCC[C@H](NC(=O)[C@H](CC(C)C)NC(=O)CNC(=O)[C@@H](NC(=O)[C@@H](NC(=O)[C@H](CCC(N)=O)NC(=O)[C@H](CCC(N)=O)NC(=O)[C@@H]1CCCN1C(=O)[C@H](CCCCN)NC(=O)[C@@H]1CCCN1C(=O)[C@@H](N)CCCN=C(N)N)C1CCc2ccccc21)C1c2ccccc2-c2ccccc21)C(N)=O (stereo partly drawn) (H-RPKPQQ[X1][Gly(9-fluorenyl)]GLM-NH2) ) is 8.47
